Consider compounds characterized by their MIC with ENA (URMC-2).
Give bare numbers, in µg/mL.

CC(C)(O/N=C(\C(=O)N[C@@H]1C(=O)N2C(C(=O)O)=C(C=Cc3ccc(C[n+]4ccc(-c5ccc(O)c(O)c5)cc4)cc3)CS[C@H]12)c1csc(N)n1)C(=O)O (mixture of isomers) [Compound 412]: 0.13
CC(C)(O/N=C(\C(=O)N[C@@H]1C(=O)N2C(C(=O)O)=C(C=Cc3ccc(C[N+]4(C)Cc5c(Cl)c(O)c(O)c(Cl)c5C4)cc3)CS[C@H]12)c1csc(N)n1)C(=O)O (mixture of isomers) [Compound 431]: 0.5

For each of the items listed, what is its MIC?
1. CC(C)(O/N=C(\C(=O)N[C@@H]1C(=O)N2C(C(=O)O)=C(C=Cc3ccc(C[N+]4(C)CCc5cc(O)c(O)cc5C4)cc3)CS[C@H]12)c1csc(N)n1)C(=O)O (mixture of isomers) [Compound 407]
2. CC(C)(O/N=C(\C(=O)N[C@@H]1C(=O)N2C(C(=O)O)=C(C=Cc3ccc(C[N+]4(C)CCc5c(Cl)c(O)c(O)c(Cl)c5C4)cc3)CS[C@H]12)c1csc(N)n1)C(=O)O (mixture of isomers) [Compound 429]
3. CC(C)(O/N=C(\C(=O)N[C@@H]1C(=O)N2C(C(=O)O)=C(C=Cc3ccc(C[N+]4(C)CCc5ccc(O)c(O)c5C4)cc3)CS[C@H]12)c1csc(N)n1)C(=O)O (mixture of isomers) [Compound 442]

*A*
[0.5, 1, 1]

*Q* Query (compound): CC(C)(O/N=C(\C(=O)N[C@@H]1C(=O)N2C(C(=O)O)=C(C=Cc3ccc(C[N+]4(C)Cc5cc(O)c(O)c(Cl)c5C4)cc3)CS[C@H]12)c1csc(N)n1)C(=O)O (mixture of isomers) [Compound 432] ; field requested: MIC
*A* 0.25

----------
# System: Isogenic E. coli J58 strain carrying VIM-2
# Assay Method Text: MIC determination, isogenic E. coli strains
# Type: cell-based
# Conditions Used: Escherichia coli, 18 h, read-out: Mimimum Inhibitory Concentrations, VIM-2
// classify: if (MIC < 1 µg/mL) true (1) else false (0)

CC(C)(O/N=C(\C(=O)N[C@@H]1C(=O)N2C(C(=O)O)=C(C=Cc3ccc(C[N+](C)(C)Cc4ccc(O)c(O)c4Cl)cc3)CS[C@H]12)c1csc(N)n1)C(=O)O (mixture of isomers): false (0)

*Q* Find out if reported MIC for CC(C)(O/N=C(\C(=O)N[C@@H]1C(=O)N2C(C(=O)O)=C(C=Cc3ccc(C[N+]4(C)Cc5cc(O)c(O)cc5C4)cc3)CS[C@H]12)c1csc(N)n1)C(=O)O (mixture of isomers) is less than 1 µg/mL
*A* false (0)

*Q* Find out if reported MIC for CC(C)(O/N=C(\C(=O)N[C@@H]1C(=O)N2C(C(=O)O)=C(C=Cc3ccc(C[N+]4(C)CCc5c(ccc(O)c5O)C4)cc3)CS[C@H]12)c1csc(N)n1)C(=O)O (mixture of isomers) is less than 1 µg/mL
*A* true (1)

*Q* Find out if reported MIC for CC(C)(O/N=C(\C(=O)N[C@@H]1C(=O)N2C(C(=O)O)=C(C=Cc3ccc(C[N+]4(C)Cc5c(Cl)c(O)c(O)c(Cl)c5C4)cc3)CS[C@H]12)c1csc(N)n1)C(=O)O (mixture of isomers) is less than 1 µg/mL
*A* true (1)

*Q* Find out if reported MIC for CC(C)(O/N=C(\C(=O)N[C@@H]1C(=O)N2C(C(=O)O)=C(C=Cc3ccc(C[N+]4(C)Cc5cc(O)c(O)c(Cl)c5C4)cc3)CS[C@H]12)c1csc(N)n1)C(=O)O (mixture of isomers) is less than 1 µg/mL
*A* true (1)

*Q* Find out if reported MIC for CC(C)(O/N=C(\C(=O)N[C@@H]1C(=O)N2C(C(=O)O)=C(C=Cc3ccc(C[n+]4ccc(-c5ccc(O)c(O)c5)cc4)cc3)CS[C@H]12)c1csc(N)n1)C(=O)O (mixture of isomers) is less than 1 µg/mL
*A* true (1)

----------
# System: Pseudomonas aeruginosa PA-RR-(980151052)
# Assay Method Text: MIC determination
# Type: cell-based
# Conditions Used: Pseudomonas aeruginosa; PA-RR-(980151052); CAMH broth, 20 μM Apo-Transferrin, 37° C., 18 hours; read-out: Minimum Inhibitory Concentrations, PA-RR-(980151052)
Measurement Name: MIC

CC(C)(O/N=C(\C(=O)N[C@@H]1C(=O)N2C(C(=O)O)=C(C=Cc3ccc(C[n+]4ccc(-c5ccc(O)c(O)c5)cc4)cc3)CS[C@H]12)c1csc(N)n1)C(=O)O (mixture of isomers): 4 µg/mL

*Q* Query (compound): CC(C)(O/N=C(\C(=O)N[C@@H]1C(=O)N2C(C(=O)O)=C(C=Cc3ccc(C[N+](C)(C)Cc4cc(O)c(O)c(Cl)c4)cc3)CS[C@H]12)c1csc(N)n1)C(=O)O (mixture of isomers) ; field requested: MIC
*A* 4 µg/mL

----------
# Test system: E. coli J53 Alone
# Assay Method Text: MIC determination, isogenic E. coli strains
# Format: cell-based
# Conditions Used: J53 Alone, Table 4-2; CAMH broth, 20 μM Apo-Transferrin, 37° C., 18 hours
Measurement Name: Mimimum Inhibitory Concentrations, J53 Alone (microgram/mL)
One number for each entry, in microgram/mL.

Consider the reported Mimimum Inhibitory Concentrations, J53 Alone for these compounds:
COc1cc[n+](Cc2ccc(C=CC3=C(C(=O)O)N4C(=O)[C@@H](NC(=O)/C(=N\OC(C)(C)C(=O)O)c5csc(N)n5)[C@H]4SC3)cc2)cc1OC (mixture of isomers): 0.5
CC(C)(O/N=C(\C(=O)N[C@@H]1C(=O)N2C(C(=O)O)=C(C=Cc3ccc(C[N+]4(C)CCc5cc(O)c(O)cc5C4)cc3)CS[C@H]12)c1nsc(N)n1)C(=O)O (mixture of isomers): 0.25
CC(C)(O/N=C(\C(=O)N[C@@H]1C(=O)N2C(C(=O)O)=C(C=Cc3ccc(C[n+]4ccc(O)c(O)c4)cc3)CS[C@H]12)c1csc(N)n1)C(=O)O (mixture of isomers): 0.13
C#CC[N+]1(Cc2ccc(C=CC3=C(C(=O)O)N4C(=O)[C@@H](NC(=O)/C(=N\OC(C)(C)C(=O)O)c5csc(N)n5)[C@H]4SC3)cc2)CCc2cc(O)c(O)cc2C1 (mixture of isomers): 0.13
CC(C)(O/N=C(\C(=O)N[C@@H]1C(=O)N2C(C(=O)O)=C(C=Cc3ccc(C[N+]4(C)CCc5c(ccc(O)c5O)C4)cc3)CS[C@H]12)c1csc(N)n1)C(=O)O (mixture of isomers): 0.25
CC(C)(O/N=C(\C(=O)N[C@@H]1C(=O)N2C(C(=O)O)=C(C=Cc3ccc(C[N+]4(C)CCc5cc(O)c(O)cc5C4)cc3)CS[C@H]12)c1csc(N)n1)C(=O)O (mixture of isomers): 0.13

Now take the following compound into account.
*Q* Query (compound): CC(C)(O/N=C(\C(=O)N[C@@H]1C(=O)N2C(C(=O)O)=C(C=Cc3ccc(C[N+](C)(C)Cc4ccc(O)c(O)c4Cl)cc3)CS[C@H]12)c1csc(N)n1)C(=O)O (mixture of isomers) ; field requested: Mimimum Inhibitory Concentrations, J53 Alone
*A* 0.25

----------
# System: Pseudomonas aeruginosa PA (URMC-3)
# Assay Method Text: MIC determination
# Assay type: cell-based
# Conditions Used: Pseudomonas aeruginosa; PA (URMC-3); CAMH broth, 20 μM Apo-Transferrin, 37° C., 18 hours; read-out: Minimum Inhibitory Concentrations, PA (URMC-3)
Answer each item with its documented MIC.
Numbers only, in µg/mL.

Consider the reported MIC for these compounds:
CC(C)(O/N=C(\C(=O)N[C@@H]1C(=O)N2C(C(=O)O)=C(C=Cc3ccc(C[N+]4(C)Cc5cc(O)c(O)c(Cl)c5C4)cc3)CS[C@H]12)c1csc(N)n1)C(=O)O (mixture of isomers): 1
Cn1c[n+](Cc2ccc(C=CC3=C(C(=O)O)N4C(=O)[C@@H](NC(=O)/C(=N\OC(C)(C)C(=O)O)c5csc(N)n5)[C@H]4SC3)cc2)cc1C(=O)Nc1ccc(O)c(O)c1 (mixture of isomers): 0.5
CC(C)(O/N=C(\C(=O)N[C@@H]1C(=O)N2C(C(=O)O)=C(C=Cc3ccc(C[N+]4(C)Cc5cc(O)c(O)cc5C4)cc3)CS[C@H]12)c1csc(N)n1)C(=O)O (mixture of isomers): 0.13
CC(C)(O/N=C(\C(=O)N[C@@H]1C(=O)N2C(C(=O)O)=C(C=Cc3ccc(C[n+]4cccc(-c5ccc(O)c(O)c5)c4)cc3)CS[C@H]12)c1csc(N)n1)C(=O)O (mixture of isomers): 0.13
CC(C)(O/N=C(\C(=O)N[C@@H]1C(=O)N2C(C(=O)O)=C(C=Cc3ccc(C[N+](C)(C)Cc4ccc(O)c(O)c4Cl)cc3)CS[C@H]12)c1csc(N)n1)C(=O)O (mixture of isomers): 16

For each of the items listed, what is its MIC?
1. CC(C)(O/N=C(\C(=O)N[C@@H]1C(=O)N2C(C(=O)O)=C(C=Cc3ccc(C[N+]4(C)Cc5c(Cl)c(O)c(O)c(Cl)c5C4)cc3)CS[C@H]12)c1csc(N)n1)C(=O)O (mixture of isomers)
2. CC(C)(O/N=C(\C(=O)N[C@@H]1C(=O)N2C(C(=O)O)=C(C=Cc3ccc(C[N+](C)(C)Cc4ccc(O)c(O)c4)cc3)CS[C@H]12)c1csc(N)n1)C(=O)O (mixture of isomers)
3. CC(C)(O/N=C(\C(=O)N[C@@H]1C(=O)N2C(C(=O)O)=C(C=Cc3ccc(C[N+]4(C)CCc5cc(O)c(O)cc5C4)cc3)CS[C@H]12)c1csc(N)n1)C(=O)O (mixture of isomers)

*A*
1
64
0.25
